System: SK-MEL-2
experimentalDetails: NCI tumour cell line growth inhibition, 48 h
Calls of active or inactive are those of the source. Rule as the data show it: active = GI50 up to about 1.1 µM and inactive = higher.
Possible outcomes: class 1 = active, class 0 = inactive

{"compound": "Nc1nc(Cl)c(N)c(NCC2(CO)CCC(CCc3ccccc3)C2)n1 (stereo not given)", "targetOfAssay": "SK-MEL-2", "assignedCategory": "class 0"}
{"compound": "CC12CCC3C(CCC4(O)C=CCCC34C=O)C1(O)CC(O)C2c1ccc(=O)oc1 (stereo not given)", "targetOfAssay": "SK-MEL-2", "assignedCategory": "class 1"}
{"compound": "COc1cc(/C=C2\\CCC(C)C3=C2NC(=S)NC3c2cc(OC)c(OC)c(OC)c2)cc(OC)c1OC (stereo not given)", "targetOfAssay": "SK-MEL-2", "assignedCategory": "class 0"}
{"compound": "COc1ccc(-c2nc3ccccc3c(=S)n2OC(C)=O)cc1", "targetOfAssay": "SK-MEL-2", "assignedCategory": "class 0"}
{"compound": "CCOC(=O)c1c(Br)c(-c2ccc([N+](=O)[O-])cc2)c(Br)n1C", "targetOfAssay": "SK-MEL-2", "assignedCategory": "class 0"}
{"compound": "CC1(C)OC(C(N)=O)=C(C(N)=O)O1", "targetOfAssay": "SK-MEL-2", "assignedCategory": "class 0"}
{"compound": "CC(=O)CC(=O)Nc1ccc(OS(N)(=O)=O)cc1", "targetOfAssay": "SK-MEL-2", "assignedCategory": "class 0"}
{"compound": "C/C=C1/C(=Cc2[nH]c(C=c3[nH]/c(=C/C4=NC(=O)C(CC)=C4C)c(C)c3CCC(=O)O)c(CCC(=O)O)c2C)NC(=O)C1C (stereo not given)", "targetOfAssay": "SK-MEL-2", "assignedCategory": "class 0"}
{"compound": "O=S1(=O)N2CN3CN(C2)CN1C3", "targetOfAssay": "SK-MEL-2", "assignedCategory": "class 0"}
{"compound": "CCOC1Oc2ccccc2-c2nc(N)ncc21 (stereo not given)", "targetOfAssay": "SK-MEL-2", "assignedCategory": "class 0"}
